Listing: Papp B→A at 90 min of selected molecules
assay: in vitro; assay type: in vitro ADME; settings: human, Caco-2
All answers are understood in ×10⁻⁶ cm/s, so give the number only.

N#C[C@@]1(c2ccc3c(N)ncnn23)O[C@H](COC(=O)CC2CCC2)[C@@H](O)[C@H]1O; 0.36
CC(=O)OCOC(=O)Nc1ncnn2c([C@]3(C#N)O[C@H](COC(=O)CC4(N)CCCCC4)[C@@H](O)[C@H]3O)ccc12; 0.02
CC(C)(C)C(=O)OCOC(=O)Nc1ncnn2c([C@]3(C#N)O[C@H](COC(=O)C(C)(C)C4CCCCC4)[C@@H](O)[C@H]3O)ccc12; 0.02
CC(C)[C@H](N)C(=O)Nc1ncnn2c([C@]3(C#N)O[C@H](COC(=O)[C@@H](N)C(C)C)[C@@H](O)[C@H]3O)ccc12; 0.33
N#C[C@@]1(c2ccc3c(N)ncnn23)O[C@H](COC(=O)CC2CCOCC2)[C@@H](O)[C@H]1O; 1.4

Turning now to a further record.
# return recorded Papp B→A at 90 min for entry `N#C[C@@]1(c2ccc3c(N)ncnn23)O[C@H](COC(=O)CC2(N)CCCCC2)[C@@H](O)[C@H]1O`
0.4

====

Listing: Papp B→A at 90 min of selected compounds
experiment: in vitro; assay type: in vitro ADME; conditions: human, Caco-2
All answers are understood in ×10⁻⁶ cm/s, so give the number only.

CC(C)(C)C(=O)OCOC(=O)Nc1ncnn2c([C@]3(C#N)O[C@H](COC(=O)[C@@H](N)Cc4ccccc4)[C@@H](OC(=O)CC4CCCCC4)[C@H]3O)ccc12; 0.08
CCC(=O)OC[C@H]1O[C@@](C#N)(c2ccc3c(N)ncnn23)[C@H](O)[C@@H]1OC(=O)C(C)C; 1.6
CC(=O)OC[C@H]1O[C@@](C#N)(c2ccc3c(N)ncnn23)[C@H](O)[C@@H]1O; 0.6
N#C[C@@]1(c2ccc3c(NC(=O)c4ccccc4)ncnn23)O[C@H](CO)[C@@H](O)[C@H]1O; 11
N#C[C@@]1(c2ccc3c(N)ncnn23)O[C@H](COC(=O)CC2CCNCC2)[C@@H](O)[C@H]1O; 0.27
CCCC(=O)Nc1ncnn2c([C@]3(C#N)O[C@H](COC(=O)CC4CCCCC4)[C@@H](OC(=O)[C@@H](N)C(C)C)[C@H]3O)ccc12; 6.9
CC(C)[C@H](N)C(=O)Nc1ncnn2c([C@]3(C#N)O[C@H](CO)[C@@H](OC(=O)CC4CCCCC4)[C@H]3O)ccc12; 6.1
CC1(CC(=O)OC[C@H]2O[C@@](C#N)(c3ccc4c(N)ncnn34)[C@H](O)[C@@H]2O)CCCCC1; 3.2
CC(C)(C)[C@H](N)C(=O)OC[C@H]1O[C@@](C#N)(c2ccc3c(N)ncnn23)[C@H](O)[C@@H]1O; 1.49
CNc1nc(NC(=O)CC2CCCCC2)nc2c1ncn2[C@@H]1O[C@H](COC(=O)CC2CCCCC2)[C@@H](O)[C@@]1(C)F; 1

Turning now to a further record.
# return recorded Papp B→A at 90 min for entry `CC(C)(C)C(=O)OCOC(=O)Nc1ncnn2c([C@]3(C#N)O[C@H](COC(=O)[C@@H](N)C(C)(C)C)[C@@H](O)[C@H]3O)ccc12`
0.24

====

experiment: in vitro; type: in vitro ADME; conditions: human; Caco-2 monolayer; ER>2 indicates potential efflux transporter substrate; read-out: ER (efflux ratio)
Listing: efflux ratio at 90 min of selected molecules
A bare number is all that is needed in reply.

# return recorded efflux ratio at 90 min for entry `CNc1nc(N)nc2c1ncn2[C@@H]1O[C@H](COC(C)=O)[C@@H](OC(=O)Cc2ccccc2)[C@@]1(C)F`
0.38

# return recorded efflux ratio at 90 min for entry `CCCCCOC(=O)Nc1ncnn2c([C@]3(C#N)O[C@H](CO)[C@@H](OC(=O)Cc4ccccc4)[C@H]3O)ccc12`
0.33

# return recorded efflux ratio at 90 min for entry `CC(=O)Nc1ncnn2c([C@]3(C#N)O[C@H](COC(=O)Cc4ccccc4)[C@@H](OC(=O)[C@@H](N)C(C)C)[C@H]3O)ccc12`
12

# return recorded efflux ratio at 90 min for entry `CC(=O)O[C@@H]1[C@H](OC(=O)[C@@H](N)C(C)C)[C@@H](COC(=O)Cc2ccccc2)O[C@@]1(C#N)c1ccc2c(N)ncnn12`
5.6

====

experiment: in vitro; format: in vitro ADME; settings: human; Caco-2 monolayer, apical to basolateral, 90-minute incubation; read-out: Papp, A-B
The following ranges of Papp A→B at 90 min define the classes used here: band A = under 0.8 ×10⁻⁶ cm/s, band B = from 0.8 ×10⁻⁶ cm/s up to 2 ×10⁻⁶ cm/s, band C = 2 ×10⁻⁶ cm/s and over

CNc1nc(N)nc2c1ncn2[C@@H]1O[C@H](COC(C)=O)[C@@H](OC(=O)Cc2ccccc2)[C@@]1(C)F; band C
CCCC(=O)Nc1ncnn2c([C@]3(C#N)O[C@H](COC(=O)Cc4ccccc4)[C@@H](OC(=O)[C@@H](N)C(C)C)[C@H]3O)ccc12; band B
CC(C)[C@H](N)C(=O)Nc1ncnn2c([C@]3(C#N)O[C@H](CO)[C@@H](OC(=O)Cc4ccccc4)[C@H]3O)ccc12; band A
CC(C)[C@H](N)C(=O)OC[C@H]1O[C@@](C#N)(c2ccc3c(N)ncnn23)[C@H](O)[C@@H]1OC(=O)Cc1ccccc1; band B
CCC(=O)OC[C@H]1O[C@@](C#N)(c2ccc3c(N)ncnn23)[C@H](O)[C@@H]1OC(=O)CC; band B
CCCCC(=O)Nc1ncnn2c([C@]3(C#N)O[C@H](CO)[C@@H](OC(=O)Cc4ccccc4)[C@H]3O)ccc12; band A

Could you tell me which band `CC(C)[C@H](N)C(=O)O[C@H]1[C@@H](O)[C@](C#N)(c2ccc3c(N)ncnn23)O[C@@H]1COC(=O)Cc1ccccc1` belongs to?
band A

Could you tell me which band `CC(C)C(=O)Nc1ncnn2c([C@]3(C#N)O[C@H](COC(=O)Cc4ccccc4)[C@@H](OC(=O)[C@@H](N)C(C)C)[C@H]3O)ccc12` belongs to?
band C

====

assay: in vitro; type: in vitro ADME; details: human, Caco-2
Listing: Papp A→B at 90 min of selected molecules
All answers are understood in ×10⁻⁶ cm/s, so give the number only.

Example entries and their recorded answers appear below.
CC(C)[C@H](N)C(=O)OC[C@H]1O[C@@](C#N)(c2ccc3c(N)ncnn23)[C@H](O)[C@@H]1O [Compound 11]; 0.4
CC(C)[C@H](N)C(=O)Nc1ncnn2c([C@]3(C#N)O[C@H](CO)[C@@H](OC(=O)[C@@H](N)C(C)C)[C@H]3O)ccc12 [Compound 129]; 0.03
N#C[C@@]1(c2ccc3c(N)ncnn23)O[C@H](COC(=O)[C@@H](N)Cc2ccccc2)[C@@H](OC(=O)CC2CCCCC2)[C@H]1O [Compound 372]; 0.73
CNc1nc(N)nc2c1ncn2[C@@H]1O[C@H](COC(=O)CC2CCCCC2)[C@@H](OC(=O)C(C)C)[C@@]1(C)F [Compound 223]; 20

# return recorded Papp A→B at 90 min for entry N#C[C@@]1(c2ccc3c(NC(=O)[C@@H](N)Cc4ccc(F)cc4)ncnn23)O[C@H](CO)[C@@H](OC(=O)CC2(N)CCCCC2)[C@H]1O [Compound 345]
0.09

# return recorded Papp A→B at 90 min for entry CCC(=O)OC[C@H]1O[C@@](C#N)(c2ccc3c(N)ncnn23)[C@H](O)[C@@H]1OC(=O)C(C)C [Compound 70]
1.8

# return recorded Papp A→B at 90 min for entry COC1(CC(=O)OC[C@H]2O[C@@](C#N)(c3ccc4c(N)ncnn34)[C@H](O)[C@@H]2O)CCCCC1 [Compound 287]
5.2

# return recorded Papp A→B at 90 min for entry CC(C)(C)[C@@H](N)C(=O)OC[C@H]1O[C@@](C#N)(c2ccc3c(N)ncnn23)[C@H](O)[C@@H]1O [Compound 411]
0.12

# return recorded Papp A→B at 90 min for entry N#C[C@@]1(c2ccc3c(N)ncnn23)O[C@H](COC(=O)CC2CCCCCC2)[C@@H](O)[C@H]1O [Compound 261]
0.79

# return recorded Papp A→B at 90 min for entry CCC(=O)Nc1nc(NC)c2ncn([C@@H]3O[C@H](COC(C)=O)[C@@H](OC(=O)CC)[C@@]3(C)F)c2n1 [Compound 331]
7.9

# return recorded Papp A→B at 90 min for entry CC(C)CC(=O)OC[C@H]1O[C@@](C#N)(c2ccc3c(N)ncnn23)[C@H](O)[C@@H]1OC(=O)CC(C)C [Compound 17]
15

# return recorded Papp A→B at 90 min for entry CC(=O)O[C@H]1[C@@H](OC(C)=O)[C@](C#N)(c2ccc3c(N)ncnn23)O[C@@H]1COC(=O)C(C)(C)C1CCCCC1 [Compound 412]
5.1

# return recorded Papp A→B at 90 min for entry N#C[C@@]1(c2ccc3c(N)ncnn23)O[C@H](COC(=O)CC2(N)CCCCC2)[C@@H](O)[C@H]1O [Compound 286]
0.01
